Listing of recorded ALBUMIN by entry.
- Species on record: Rattus norvegicus
- assay.protocol: DrugMatrix - Regimen: Daily Repeat
- Format: toxicity, organism-based, Sprague-Dawley
- Design: regimen Daily Repeat, gender Male, age 6-8 weeks
- settings: in vivo, po, 10 mg/kg, 120 h, tissue Plasma, route oral GAVAGE, dose level Low, time 5 day, vehicle .5 % CMC
Unit G/DL implied. Number only.

Consider the following illustrative entries.
• COc1c(C)c2c(c(O)c1C/C=C(\C)CCC(=O)OCCN1CCOCC1)C(=O)OC2 [MYCOPHENOLATE MOFETIL] = 4.17
• O=C1CN=C(c2ccccc2)c2cc([N+](=O)[O-])ccc2N1 = 4.43
• NS(=O)(=O)c1cc2c(cc1Cl)NCNS2(=O)=O [HYDROCHLOROTHIAZIDE] = 4.07

We now examine a further molecule.
# get_value(readout='ALBUMIN', item= CC(=O)O[C@]1(C(C)=O)CC[C@H]2[C@@H]3C=C(Cl)C4=CC(=O)CC[C@]4(C)[C@H]3CC[C@@]21C [CHLORMADINONE ACETATE] )
4.47
